Field: mass density. Provide a value for each of the compounds that follow.
Details: 298.15 K; 101.33 kPa; Liquid; Vibrating tube method
The response must be a number in kg/m3 with no trailing unit.

Record CCCOC(C)=O [propyl ethanoate] . Reported mass density: 882.9

CCCCCOC(C)=O [pentyl ethanoate] has a reported mass density of 872.3

Lookup result for COC(C)=O [methyl ethanoate] ; measured mass density: 927.4

The compound CO showed mass density equal to 787.7

The recorded mass density for CCOC(=O)OCC [diethyl carbonate] is 969.4

mass density for COC(=O)OC [dimethyl carbonate] is 1062.7

---

Experiment: refractive index (Na D-line) (dimensionless)
Details: 298.15 K; 101.33 kPa; Liquid; Standard Abbe refractometry
For each entry below, report its refractive index value.
Number only, no unit.

Notebook: CO , refractive index read as 1.3275

Value of refractive index reported for the compound CCCCCOC(C)=O [pentyl ethanoate] is 1.3999

Kindly note the recorded refractive index for COC(C)=O [methyl ethanoate] , which is 1.3587

Kindly note the recorded refractive index for CCOC(=O)OCC [diethyl carbonate] , which is 1.3821

refractive index measured on CCCOC(C)=O [propyl ethanoate] = 1.3815

Query COC(=O)OC [dimethyl carbonate] yields refractive index of 1.3664
